The values you see were collected from patent US20230115176A1.

experiment: Kinetic solubility in PBS pH 7.4, HPLC-UV (Example 21, Table 27); assay type: physicochemical; conditions: phosphate buffered saline, aqueous buffer, kinetic from dmso stock, 0.5 M PBS, shaken minimum 24 h at approximately 25° C., HPLC-UV 270 nm
Please respond with reported solubility kinetic for every item in the list.

Quote solubility kinetic reported for CCCCCOc1cc(N2CC[C@@H](C)N(Cc3cccc4[nH]cc(Cl)c34)C2=O)ccc1OC please.
< 10 µM

Quote solubility kinetic reported for COc1ccc(N2CCCN(Cc3cccc4c3c(Cl)cn4CC(=O)N(C)C)C2=O)cc1OCCC[C@H]1C[C@@H]1C (racemic) please.
< 10 µM

Quote solubility kinetic reported for CCCCCOc1cc(N2CC[C@H](C)N(Cc3cccc4[nH]cc(C)c34)C2=O)ccc1OC please.
< 10 µM

====

assay: Permeability assay, unidirectional transport, Papp (Example 30, Table 34); format: in vitro ADME, canine; details: dog, pH 7.4; MDCK-WT cell monolayers, A-to-B, 3 μM test compound, 37° C., duplicate determinations
Would you mind labelling by Papp A→B at 3 μM? At or over 20 ×10⁻⁶ cm/s is 1, under is 0.

Decide: Papp A→B at 3 μM of COc1cc(CC(=O)N(C)C)ccc1CN1CCCN(c2ccc(OC)c(OCCCC(C)(F)F)c2)C1=O >= 20 ×10⁻⁶ cm/s?
1

Decide: Papp A→B at 3 μM of CCCCCOc1cc(N2CCCN(Cc3ccnc4c3c(Cl)cn4CC(=O)N3CC[C@@H](N(C)C)C3)C2=O)ccc1OC >= 20 ×10⁻⁶ cm/s?
0

Decide: Papp A→B at 3 μM of CCCCCOc1cc(N2CC[C@H](C)N(Cc3ccnc4c3c(Cl)cn4CC(=O)N3CC(C)(O)C3)C2=O)ccc1OC >= 20 ×10⁻⁶ cm/s?
0

Decide: Papp A→B at 3 μM of CCN1CC[C@@H](N(C)C(=O)Cc2ccc(CN3C(=O)N(c4ccc(OC)c(OCCCC5CC5)c4)CC[C@@H]3C)c(OC)c2)C1 >= 20 ×10⁻⁶ cm/s?
0

Decide: Papp A→B at 3 μM of CCCCCOc1cc(N2CC[C@H](C)N(Cc3ccnc4c3c(Cl)cn4CC(=O)N(C)C)C2=O)ccc1OC >= 20 ×10⁻⁶ cm/s?
1

====

Please respond with reported solubility kinetic for every item in the list.
assay: Kinetic solubility in PBS pH 7.4, HPLC-UV (Example 21, Table 27); format: physicochemical; conditions: phosphate buffered saline, aqueous buffer, kinetic from dmso stock, 0.5 M PBS, shaken minimum 24 h at approximately 25° C., HPLC-UV 270 nm
Just the number in µM, nothing appended.

Quote solubility kinetic reported for COc1cc(CC(=O)N2CCOCC2)ccc1CN1CCCN(c2ccc(OC)c(OCCCC3CCC3)c2)C1=O [CU0589] please.
131

Quote solubility kinetic reported for CCCCCOc1cc(N2CC(CO)CN(Cc3ccc(CC(=O)N4CCCC4)cc3OC)C2=O)ccc1OC (stereo not drawn) [SC0184] please.
411

Quote solubility kinetic reported for CCCCCOc1cc(N2CCCN(Cc3ccc(CCN4CCCCC4=O)cc3OC)C2=O)ccc1OC [CU0190] please.
139

Quote solubility kinetic reported for COc1cc(CC(=O)N2CCOCC2)ccc1CN1CCCN(c2ccc(OC)c(OCCCC3CC3)c2)C1=O [CU0511] please.
310

Quote solubility kinetic reported for CCCCCOc1cc(N2CCCN(Cc3ccc(C4CNC(=O)O4)cc3OC)C2=O)ccc1OC (stereo not drawn) [CU0611] please.
170

Quote solubility kinetic reported for CCCCCOc1cc(N2CCCN(Cc3ccnc4c3ccn4[C@@H]3CCN(C)C3=O)C2=O)ccc1OC [CU0667] please.
139

Quote solubility kinetic reported for CCCCCOc1cc(N2CC[C@H](C)N(Cc3cccc4c3ccn4CC(=O)N3CCOC(CN(C)C)C3)C2=O)ccc1OC (stereo partly drawn) [SC0007] please.
445

Quote solubility kinetic reported for COc1ccc(N2CCCN(Cc3ccnc4c3c(Cl)cn4CC(=O)N(C)C)C2=O)cc1OCCC[C@H]1C[C@@H]1C [CU0610] please.
37

====

target: Human C5 (Homo sapiens, UniProt P01031); construct: purchased Complement Technology; assay: Surface plasmon resonance (SPR), compounds on immobilized human C5 (Example 2, Table 5); format: binding; conditions: lowest value where a range of compound concentrations were analyzed
measured.quantity: log10 Kd (log10 of the value in nM)
// units: nM (pre-log); metric: Kd; scale: log10

Quote log10 Kd reported for CCCOc1cc(NC(=O)O[C@@H](C)c2ccccc2)ccc1OC please.
3.59

Quote log10 Kd reported for COc1ccc(NC(=O)NCC(O)c2ccccn2)cc1OCCCC(C)C (stereo not shown) please.
3.56

Quote log10 Kd reported for COc1ccc(NC(=O)NCc2ccccc2F)cc1OCCCC(C)C please.
2.70

Quote log10 Kd reported for COc1ccc(NC(=O)NCc2cccc(C#N)c2)cc1OCCCC(C)C please.
3.97

Quote log10 Kd reported for CNC(=O)[C@H](NC(=O)Nc1ccc(OC)c(OCCCC(C)C)c1)c1ccccc1 please.
2.38

Quote log10 Kd reported for COc1ccc(NC(=O)NCc2ccc(Br)cc2)cc1OCCCC(C)C please.
3.49

Quote log10 Kd reported for COc1cccc(CNC(=O)Nc2ccc(OC)c(OCCCC(C)C)c2)c1 please.
2.92

Quote log10 Kd reported for COc1ccc(NC(=O)NCC(O)c2ccccc2)cc1OCCCC(C)C (stereo not shown) please.
3.20

Quote log10 Kd reported for COc1ccc(NC(=O)NCc2cccc(O)c2)cc1OCCCC(C)C please.
2.46

Quote log10 Kd reported for COc1ccc(NC(=O)NCc2cccc(CN(C)C)c2)cc1OCCCC(C)C please.
3.80

Quote log10 Kd reported for COc1ccc(NC(=O)N[C@@H](CO)c2ccccc2)cc1OCc1cncnc1 please.
3.81

Quote log10 Kd reported for COc1ccc(NC(=O)N[C@@H](CO)c2ccccc2)cc1OCc1ccccn1 please.
3.20

Quote log10 Kd reported for COc1ccc(NC(=O)N[C@@H](CO)c2ccccc2)cc1OCCOC1CCC1 please.
3.53

Quote log10 Kd reported for COC[C@H](NC(=O)Nc1ccc(OC)c(OCCCC(C)C)c1)c1ccccc1 please.
3.98

Quote log10 Kd reported for COc1ccc(NC(=O)N[C@H]2c3ccccc3C[C@@H]2O)cc1OCCCC(C)C please.
3.26

Quote log10 Kd reported for CCCCCCOc1ccc(NC(=O)N[C@@H](CO)c2ccccc2)cc1 please.
3.74

Quote log10 Kd reported for COc1ccc(NC(=O)N[C@@H](CO)c2ccccc2)cc1OCCN1CCC(O)CC1 please.
2.58

Quote log10 Kd reported for COc1ccc(NC(=O)NCc2cncnc2)cc1OCCCC(C)C please.
3.32

Quote log10 Kd reported for COc1ccc(NC(=O)NC2CCCCC2O)cc1OCCCC(C)C (stereo not shown) please.
3.34

====

molecular target: human C5 complement protein (Homo sapiens, UniProt P01031); assay: Surface plasmon resonance (SPR), immobilized human C5, 37° C. (Example 12, Table 21); type: binding; settings: where a range of compound concentrations were analyzed, the lowest value obtained
Sequence (P01031 19-1676): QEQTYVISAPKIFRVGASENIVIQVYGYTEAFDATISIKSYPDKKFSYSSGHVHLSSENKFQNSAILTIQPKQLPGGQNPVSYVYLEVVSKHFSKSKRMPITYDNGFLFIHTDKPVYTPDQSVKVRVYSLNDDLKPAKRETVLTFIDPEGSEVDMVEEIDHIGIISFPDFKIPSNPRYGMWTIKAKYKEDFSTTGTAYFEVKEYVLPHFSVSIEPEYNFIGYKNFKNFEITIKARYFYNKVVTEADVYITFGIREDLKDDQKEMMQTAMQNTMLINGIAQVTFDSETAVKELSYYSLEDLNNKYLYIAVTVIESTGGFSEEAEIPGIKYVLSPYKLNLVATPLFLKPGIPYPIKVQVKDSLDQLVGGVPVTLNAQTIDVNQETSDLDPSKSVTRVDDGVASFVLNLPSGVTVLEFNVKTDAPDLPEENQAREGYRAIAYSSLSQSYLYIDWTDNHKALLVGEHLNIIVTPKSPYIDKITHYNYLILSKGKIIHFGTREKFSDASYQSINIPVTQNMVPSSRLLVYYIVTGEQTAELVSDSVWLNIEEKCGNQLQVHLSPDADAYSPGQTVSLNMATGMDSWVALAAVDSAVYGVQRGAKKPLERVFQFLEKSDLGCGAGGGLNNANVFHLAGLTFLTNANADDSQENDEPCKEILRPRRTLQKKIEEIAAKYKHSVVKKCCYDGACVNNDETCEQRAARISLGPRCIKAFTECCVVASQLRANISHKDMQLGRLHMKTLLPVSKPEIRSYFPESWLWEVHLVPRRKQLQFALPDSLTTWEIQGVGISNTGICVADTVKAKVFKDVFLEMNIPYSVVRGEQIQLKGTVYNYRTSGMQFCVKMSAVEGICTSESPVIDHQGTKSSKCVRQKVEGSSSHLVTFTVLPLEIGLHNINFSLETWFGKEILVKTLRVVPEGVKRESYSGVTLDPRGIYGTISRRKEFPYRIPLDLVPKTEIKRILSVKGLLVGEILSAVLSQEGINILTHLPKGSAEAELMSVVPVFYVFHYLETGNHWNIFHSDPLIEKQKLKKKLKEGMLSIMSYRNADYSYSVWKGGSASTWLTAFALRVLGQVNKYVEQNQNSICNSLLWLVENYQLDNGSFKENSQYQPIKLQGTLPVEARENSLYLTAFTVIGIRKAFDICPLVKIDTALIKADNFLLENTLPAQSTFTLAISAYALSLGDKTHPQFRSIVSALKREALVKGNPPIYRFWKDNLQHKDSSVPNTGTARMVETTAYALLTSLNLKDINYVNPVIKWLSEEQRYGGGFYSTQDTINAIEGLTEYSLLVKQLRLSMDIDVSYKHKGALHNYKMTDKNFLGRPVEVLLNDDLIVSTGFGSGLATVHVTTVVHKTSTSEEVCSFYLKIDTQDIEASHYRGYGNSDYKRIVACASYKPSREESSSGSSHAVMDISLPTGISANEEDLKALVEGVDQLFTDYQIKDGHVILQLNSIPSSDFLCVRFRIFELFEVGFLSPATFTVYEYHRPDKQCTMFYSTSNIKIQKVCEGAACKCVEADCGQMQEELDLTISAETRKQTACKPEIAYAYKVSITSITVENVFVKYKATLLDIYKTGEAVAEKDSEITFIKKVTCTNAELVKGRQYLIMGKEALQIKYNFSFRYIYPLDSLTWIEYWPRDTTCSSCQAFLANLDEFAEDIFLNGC
Please respond with reported Kd for every item in the list.
In your response, put the unit directly after the numeric value.

Quote Kd reported for CCCCCOc1cc(N2CCCN(Cc3ccnc4[nH]ccc34)C2=O)ccc1OC please.
47.5 nM

Quote Kd reported for CCCCCOc1cc(N2CCCN(Cc3ccnc4c3ccn4C3CCN(C)C3=O)C2=O)ccc1OC (single isomer, unassigned) [CU0039(2)] please.
6.5 nM

Quote Kd reported for CCCCCOc1cc(N2CCCN(Cc3ccnc4c3ccn4CC(=O)N3CCOCC3)C2=O)ccc1OC please.
16.5 nM

Quote Kd reported for CCCCCOc1cc(N2CCCN(Cc3ccnc4c3ccn4CC(=O)N3CCN(C4CC4)CC3)C2=O)ccc1OC please.
23 nM

Quote Kd reported for CCCCCOc1cc(N2CCCN(Cc3ccc(CCN(CC)CC)cc3OC)C2=O)ccc1OC please.
9.6 nM

Quote Kd reported for CCCCCOc1cc(N2CCCN(Cc3ccnc4c3ccn4CC(=O)N3CCOC(CCO)C3)C2=O)ccc1OC (centres unmarked) please.
15.5 nM

Quote Kd reported for CCCCCOc1cc(N2CCCN(Cc3ccnc4c3ccn4CC(=O)N3CCNC(=O)C3)C2=O)ccc1OC please.
13.5 nM

Quote Kd reported for CCCCCOc1cc(N2CCCN(Cc3ccc(CC(=O)N4CC(=O)N(C)C(C)C4)cc3OC)C2=O)ccc1OC (centres unmarked) please.
2 nM

Quote Kd reported for CCCCCOc1cc(N2CCCN([C@@H](C)c3ccnc4c3ccn4CC(=O)N3CCOCC3)C2=O)ccc1OC please.
26 nM

Quote Kd reported for CCCCCOc1cc(N2CCN(Cc3ccc(C(C)(C)O)cc3OC)C2=O)ccc1OC please.
10.5 nM

Quote Kd reported for CCCCCOc1cc(N2CCCN(Cc3ccnc4c3ccn4CC(=O)N3CCN(C)C(=O)C3)C2=O)ccc1C1CC1 please.
13 nM

Quote Kd reported for CCCCCOc1cc(N2CCCN(Cc3ccnc4c3ccn4CC(=O)N3CCOC(CN(C)C)C3)C2=O)ccc1OC (centres unmarked) please.
9 nM

Quote Kd reported for CCCCCOc1cc(N2CCCN(Cc3cccc4c3ccn4CC(=O)N3CCOCC3)C2=O)ccc1OC please.
2.1 nM

Quote Kd reported for CCCCCOc1cc(N2CCCN([C@@H](C)c3ccnc4c3ccn4CC(=O)N(C)C)C2=O)ccc1OC please.
15.5 nM
